Listing of entries alongside the reported IC50 (read off the curve), % Inhibition.
- Experimental target: human complement Component 5 (C5) (human, UniProt P01031 19-1676, limits assumed)
- Sequence (P01031 19-1676 limits assumed): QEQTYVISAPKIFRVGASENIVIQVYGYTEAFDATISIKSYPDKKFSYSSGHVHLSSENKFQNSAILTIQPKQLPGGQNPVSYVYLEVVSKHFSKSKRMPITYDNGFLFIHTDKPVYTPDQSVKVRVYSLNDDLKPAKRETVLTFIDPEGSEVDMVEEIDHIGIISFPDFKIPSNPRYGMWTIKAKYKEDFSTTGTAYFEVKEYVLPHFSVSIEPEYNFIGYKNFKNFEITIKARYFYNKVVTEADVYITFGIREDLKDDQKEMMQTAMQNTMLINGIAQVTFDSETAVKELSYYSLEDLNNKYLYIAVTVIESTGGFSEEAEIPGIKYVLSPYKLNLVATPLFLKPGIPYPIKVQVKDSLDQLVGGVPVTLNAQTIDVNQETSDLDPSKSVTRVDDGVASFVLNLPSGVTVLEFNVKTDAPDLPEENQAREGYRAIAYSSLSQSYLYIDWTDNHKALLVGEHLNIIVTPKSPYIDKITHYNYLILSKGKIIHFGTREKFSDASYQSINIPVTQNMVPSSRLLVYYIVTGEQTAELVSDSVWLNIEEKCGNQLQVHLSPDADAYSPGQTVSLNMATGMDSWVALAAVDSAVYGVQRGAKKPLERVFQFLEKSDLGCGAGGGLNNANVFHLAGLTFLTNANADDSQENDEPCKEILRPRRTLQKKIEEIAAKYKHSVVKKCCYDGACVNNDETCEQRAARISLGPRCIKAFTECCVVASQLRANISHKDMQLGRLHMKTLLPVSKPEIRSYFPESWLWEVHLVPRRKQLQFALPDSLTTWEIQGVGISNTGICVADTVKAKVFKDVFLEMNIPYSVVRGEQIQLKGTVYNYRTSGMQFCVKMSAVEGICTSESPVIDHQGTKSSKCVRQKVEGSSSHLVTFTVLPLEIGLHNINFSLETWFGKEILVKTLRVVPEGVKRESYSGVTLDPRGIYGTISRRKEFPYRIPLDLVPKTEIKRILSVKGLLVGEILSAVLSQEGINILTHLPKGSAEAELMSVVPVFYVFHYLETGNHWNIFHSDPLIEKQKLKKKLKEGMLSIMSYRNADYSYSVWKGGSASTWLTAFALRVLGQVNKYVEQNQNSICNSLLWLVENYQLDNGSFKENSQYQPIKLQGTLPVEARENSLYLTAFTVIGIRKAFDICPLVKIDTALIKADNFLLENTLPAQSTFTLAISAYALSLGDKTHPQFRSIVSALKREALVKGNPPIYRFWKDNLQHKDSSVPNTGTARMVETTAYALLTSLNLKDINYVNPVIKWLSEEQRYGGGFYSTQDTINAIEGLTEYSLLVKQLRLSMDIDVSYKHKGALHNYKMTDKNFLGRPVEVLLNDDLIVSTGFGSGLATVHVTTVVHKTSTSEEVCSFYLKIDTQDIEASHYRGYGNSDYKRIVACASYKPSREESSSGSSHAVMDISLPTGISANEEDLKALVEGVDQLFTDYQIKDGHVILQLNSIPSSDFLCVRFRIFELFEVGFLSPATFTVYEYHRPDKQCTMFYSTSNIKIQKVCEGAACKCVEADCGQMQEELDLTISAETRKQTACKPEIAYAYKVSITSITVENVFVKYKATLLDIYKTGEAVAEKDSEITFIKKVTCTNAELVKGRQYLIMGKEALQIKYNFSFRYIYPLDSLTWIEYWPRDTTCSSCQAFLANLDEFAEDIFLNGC
- Protocol details: cell-based or functional assay
Endpoint name: IC50 (read off the curve), % Inhibition

H5L3-IgG (antibody, V domains shown) VH: QVQLKQSGAEVKKPGASVKVSCKASGYTFTDEYMNWVRQAPGKSLEWMGYINPNNGGADYNQKFQGRVTMTVDQSISTAYMELSRLRSDDTAVYFCARLGYSNPYFDFWGQGTLVTVSS VL: DIVLTQSPSFLSASVGDRVTITCQASQDVNTAVAWYLQKPGKSPKLLIYWASTRHTGVPARFTGSGSGTDYTLTISSLQPEDFAVYFCQQHHVSPWTFGGGTKVEIK    ~3 µg/mL
H1L1-IgG (antibody, V domains shown) VH: QVQLVQSGAEVKKPGASVKVSCKASGYTFTDEYMNWVRQAPGQSLEWMGYINPNNGGADYNQKFQGRVTMTVDQSISTAYMELSRLRSDDTAVYFCARLGYSNPYFDFWGQGTLVTVSS VL: DIVLTQSPDSLAVSLGERATINCKASQDVNTAVAWYQQKPDQSPKLLIYWASTRHTGVPARFTGSGSGTDYTLTISSLQAEDVAVYFCQQHHVSPWTFGGGTKVEIK    ~3 µg/mL
H2L1-IgG (antibody, V domains shown) VH: EVQLVQSGAEVKKPGASVKVSCKASGYTFTDEYMNWVRQAPGKSLEWVGYINPNNGGADYNQKFQGRVTITVDQSASTAYMELSSLRSEDTAVYFCARLGYSNPYFDFWGQGTLVTVSS VL: DIVLTQSPDSLAVSLGERATINCKASQDVNTAVAWYQQKPDQSPKLLIYWASTRHTGVPARFTGSGSGTDYTLTISSLQAEDVAVYFCQQHHVSPWTFGGGTKVEIK    ~3 µg/mL

// provenance: patent US20250304667A1
